PARTICULARS: [M+Na]+; instrument: DT; stepped-field
Outcome: Y for collision cross section (N2) of at least 300 Å²; N for anything lower.

QUERY: Does CC/C=C\C/C=C\C/C=C\C/C=C\CCCCC(=O)OC[C@H](COP(=O)(O)OCCN)OC(=O)CCCCCCCCC/C=C\C/C=C\CCCCC [PE(38:6)] have a reported collision cross section (N2) of at least 300 Å²?
RESULT: N

QUERY: Does CC/C=C\C/C=C\C/C=C\C/C=C\CCCCC(=O)O[C@H](COC(=O)CCCCCCC/C=C\C/C=C\CCCCC)COP(=O)(O)OCCN [PE(36:6)] have a reported collision cross section (N2) of at least 300 Å²?
RESULT: N

QUERY: Does CCCCCCCCCCC=CCC=CCC=CCC=CCC(=O)OC[C@H](COP(=O)(O)OC[C@H](N)C(=O)O)OC(=O)CC=CCC=CCC=CCC=CCCCCCCCCCC [PS(46:8)] have a reported collision cross section (N2) of at least 300 Å²?
RESULT: Y

====

PARTICULARS: [M+H]+; instrument: TW; Major Mix IMS/Tof Calibration Kit (Waters)
Provide the recorded collision cross section (N2) for the entries that follow.
Number only, in Å²; omit the unit.

QUERY: Look up collision cross section (N2) for this compound: CC(C)CC(N(C)C)C1(c2ccc(Cl)cc2)CCC1 (centres undefined)
RESULT: 168

QUERY: Look up collision cross section (N2) for this compound: CN/C(=N\C#N)NCCSCc1nc[nH]c1C
RESULT: 156.5

QUERY: Look up collision cross section (N2) for this compound: CC(C)(C)NCC(O)COc1cccc2c1C[C@H](O)[C@H](O)C2 (some centres undefined)
RESULT: 172

QUERY: Look up collision cross section (N2) for this compound: CN1CC[C@]23c4c5ccc(O)c4O[C@H]2C(=O)CC[C@H]3[C@H]1C5 [Hydromorphone]
RESULT: 163.9

QUERY: Look up collision cross section (N2) for this compound: COc1ccc2[nH]cc(CCNC(C)=O)c2c1
RESULT: 153.4

QUERY: Look up collision cross section (N2) for this compound: OCCN1CCN(C(c2ccccc2)c2ccc(Cl)cc2)CC1 (centres undefined)
RESULT: 186.2

QUERY: Look up collision cross section (N2) for this compound: CCOC(=O)c1ccc(N)cc1
RESULT: 148.2

QUERY: Look up collision cross section (N2) for this compound: Cn1c(=O)c2c(ncn2C)n(C)c1=O
RESULT: 138.3

QUERY: Look up collision cross section (N2) for this compound: Cc1ccc(O)c([C@H](CCN(C(C)C)C(C)C)c2ccccc2)c1
RESULT: 182.1

====

PARTICULARS: [M+NH4]+; instrument: DT; single field, calibrated with Agilent tune mix (Agilent)
Provide the recorded collision cross section (N2) for the entries that follow.
Number only, in Å²; omit the unit.

QUERY: Look up collision cross section (N2) for this compound: CCCCCCCC/C=C\CCCCCCCCCC(=O)OC[C@@H](COC(=O)CCCCCCCCCCCC)OC(=O)CCCCCCCCC/C=C\CCCCCCCC
RESULT: 323.6

QUERY: Look up collision cross section (N2) for this compound: CCCC/C=C\CCCCCCCC(=O)OC[C@H](COC(=O)CCCCCCC/C=C\CCCCCCCCC)OC(=O)CCCCCCC/C=C\CCCCCCCCC
RESULT: 320.2

QUERY: Look up collision cross section (N2) for this compound: CCCCC/C=C\C/C=C\C/C=C\C/C=C\CCCCCC(=O)OC[C@@H](COC(=O)CCCCCCCCCCCCC)OC(=O)CCCCCCC/C=C\CCCCCCC
RESULT: 317.4

QUERY: Look up collision cross section (N2) for this compound: CCCCCCCCCC/C=C\CCCCCCCCCC(=O)OC[C@@H](COC(=O)CCCCCCCCCCC)OC(=O)CCCCCCCCC/C=C\CCCCCCCCCC
RESULT: 332.8

QUERY: Look up collision cross section (N2) for this compound: CC/C=C\C/C=C\C/C=C\C/C=C\CCCCC(=O)OC[C@H](COP(=O)(O)O[C@H]1C(O)C(O)C(O)[C@@H](O)C1O)OC(=O)CCCCCCCCC/C=C\CCCCCCCCCC (stereo partly specified)
RESULT: 308.6

QUERY: Look up collision cross section (N2) for this compound: CCCCC/C=C\C/C=C\C/C=C\C/C=C\CCCCCC(=O)OC[C@@H](COC(=O)CCCCCCC/C=C\CCCCCCCC)OC(=O)CCCCCCCCCCC/C=C\C/C=C\CCCCC
RESULT: 343.6
